Test system: MDA-MB-231
Test: Cytotoxicity against wild type human MDA-MB-231 cells after 72 hrs by MTT assay
Format: functional, cell-based
Conditions: MDA-MB-231, 72 h
Measure Name: IC50

1. O=C(O)CCCc1ccc(N(CCCl)CCCl)cc1	> 200 µM

The compound listed as O=C(CCCc1ccc(N(CCCl)CCCl)cc1)NCCC[P+](c1ccccc1)(c1ccccc1)c1ccccc1.O=C([O-])C(F)(F)F shows IC50 equal to 9.5 µM

====

Listed here: items and their measured pIC50.
Assay: Cytotoxicity against human Hs578T cells after 72 hrs by MTT assay
Assay type: functional, cell-based
Conditions: Hs-578T
Notebook: values listed as pIC50 are -log10 of the concentration (mol/L).

1) O=C(CCCc1ccc(N(CCCl)CCCl)cc1)NCCC[P+](c1ccccc1)(c1ccccc1)c1ccccc1.O=C([O-])C(F)(F)F	4.94

Would you kindly look at the next entry?
The molecule listed as O=C(O)CCCc1ccc(N(CCCl)CCCl)cc1 [CHLORAMBUCIL] shows pIC50 equal to 3.79
